# TESTED SYSTEM: Membrane-bound ghrelin O-acyltransferase MBOAT4 (Homo sapiens) (UniProt Q96T53)
# Sequence (Q96T53 whole entry): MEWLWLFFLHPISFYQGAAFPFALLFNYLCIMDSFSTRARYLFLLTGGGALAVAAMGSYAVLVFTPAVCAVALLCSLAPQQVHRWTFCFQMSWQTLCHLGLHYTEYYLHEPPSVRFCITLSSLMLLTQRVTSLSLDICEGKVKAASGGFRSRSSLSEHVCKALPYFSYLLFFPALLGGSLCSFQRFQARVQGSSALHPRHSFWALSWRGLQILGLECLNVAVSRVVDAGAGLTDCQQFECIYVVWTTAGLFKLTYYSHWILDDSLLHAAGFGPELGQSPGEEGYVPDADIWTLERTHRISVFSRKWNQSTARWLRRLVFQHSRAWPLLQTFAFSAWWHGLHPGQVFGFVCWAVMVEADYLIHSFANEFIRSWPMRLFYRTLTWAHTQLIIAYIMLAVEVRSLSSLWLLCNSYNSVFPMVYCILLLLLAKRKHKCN
# TEST SUMMARY: Inhibition of human GOAT expressed in baculovirus infected Sf9 cells at 10 uM using octanoyl-CoA and ghrelin-biotin as substrate preincubated for 20 mins followed by substrate addition and measured after = > 1 hr by HTRF assay relative to control
# ASSAY CONTEXT: time hrs >=1
// values below are reported inhibition

MOLECULE | inhibition
Cc1nc(C(F)(F)F)ccc1COc1cc(Cl)c2c(CC(=O)O)csc2c1F | 106%

[in] Using the record for Cc1cc(COc2cc(C)c3c(CC(=O)O)csc3c2)n(C)n1 , state its measured inhibition.
[out] 95.6%

[in] Using the record for O=C(O)Cc1csc2cc(S(=O)(=O)Cc3ccc(Cl)cc3Cl)ccc12 , state its measured inhibition.
[out] 83%

[in] Using the record for O=C(Cc1csc2cc(OCc3ccc(Cl)cc3Cl)ccc12)NC(CO)C(=O)O (configuration not stated) , state its measured inhibition.
[out] 97%

[in] Using the record for O=C(O)C[C@@H]1COc2cc(OCc3ccc(Cl)cc3Cl)ccc21 , state its measured inhibition.
[out] 93%

[in] Using the record for COC(=O)Cc1csc2c(F)c(OCc3cc(C(F)(F)F)nn3C)cc(Cl)c12 , state its measured inhibition.
[out] 98.9%
